B1: GLTSCR2 (parent)
chain: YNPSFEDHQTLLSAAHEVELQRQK

Variants of: B1
Experimental protocol: protein stability index of a GFP-peptide fusion (GPS, HEK-293T) (PSI 1-6); higher = more stable;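 note: lentivirally expressed fusions sorted by FACS into six bins by GFP to DsRed ratio, PSI derived from sequencing read proportions per bin multiplied by bin number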
Experimental setup: c terminus: a fixed tail appended
Measured property: protein stability index

> print(dat)
    mutation.notation        measured.property  recorded.number
 1               R22E  protein stability index             4.69
 2               E17D  protein stability index             3.85
 3               A14I  protein stability index             3.02
 4               E17V  protein stability index             2.83
 5               A14H  protein stability index             3.64
 6               L11R  protein stability index             4.19
 7                Q9F  protein stability index             2.45
 8                E6S  protein stability index             3.15
 9                E6L  protein stability index             3.04
10               L20M  protein stability index             3.67
11               S13P  protein stability index              4.2
12               K24Q  protein stability index             3.81
13                Y1H  protein stability index             5.16
14               Q21R  protein stability index             3.95
15               T10N  protein stability index             4.01
16               A15S  protein stability index             4.07
17               K24E  protein stability index             4.36
18                S4V  protein stability index             4.02
19               V18A  protein stability index                4
20                P3K  protein stability index              4.3
21               Q21W  protein stability index             3.06
22                Q9T  protein stability index             3.56
23                F5C  protein stability index                4
24                S4A  protein stability index              4.1
25                Q9G  protein stability index             4.42
26                Q9R  protein stability index             3.13
27                S4T  protein stability index             3.79
28               S13K  protein stability index             2.58
29                Q9L  protein stability index             3.11
30                P3A  protein stability index             4.25
31               E17G  protein stability index             2.94
32               A14D  protein stability index             4.29
33               S13D  protein stability index             3.88
34               A15T  protein stability index             3.75
35               H16T  protein stability index             3.93
36               E19D  protein stability index             4.05
37               V18L  protein stability index             3.69
38               Q23K  protein stability index             3.75
39               E17A  protein stability index             3.15
40                H8Y  protein stability index             1.54
41               H16E  protein stability index             4.38
42                H8P  protein stability index             3.86
43                E6H  protein stability index             3.18
44               K24M  protein stability index             3.28
45               R22C  protein stability index             3.35
46               A14T  protein stability index             4.04
